Molecular target: T1, His-tagged cynomolgus TIGIT (cynomolgus, UniProt A0A7N9I9V4 89-209)
T1 construct: SPR analyte; also called cynomolgus TIGIT protein; not shown: His tag
T1 sequence (A0A7N9I9V4 entry or part of it): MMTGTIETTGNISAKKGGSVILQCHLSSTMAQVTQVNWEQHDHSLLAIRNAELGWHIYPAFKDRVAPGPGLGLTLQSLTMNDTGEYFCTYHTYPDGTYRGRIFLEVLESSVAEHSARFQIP
Assay: SPR (Biacore T200), antibody captured, His-tagged TIGIT analyte
valueKind: log10 kon (log10 of the value in M⁻¹ s⁻¹)

binder="huTIGIT-6-4 (antibody, human IgG1, kappa, V domains shown, Humanized IgG; also called 6VH6.M7 + 6VL1.M1) VH: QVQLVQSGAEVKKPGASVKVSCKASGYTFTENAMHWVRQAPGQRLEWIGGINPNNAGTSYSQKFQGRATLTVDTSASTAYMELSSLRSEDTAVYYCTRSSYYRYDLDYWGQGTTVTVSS VL: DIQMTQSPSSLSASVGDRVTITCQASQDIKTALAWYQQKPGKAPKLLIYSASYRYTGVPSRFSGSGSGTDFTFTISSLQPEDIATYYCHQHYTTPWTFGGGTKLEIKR" endpointvalue=4.67
binder="huTIGIT-6-3 (antibody, human IgG1, kappa, V domains shown, Humanized IgG; also called 6VH6.M6 + 6VL1.M1) VH: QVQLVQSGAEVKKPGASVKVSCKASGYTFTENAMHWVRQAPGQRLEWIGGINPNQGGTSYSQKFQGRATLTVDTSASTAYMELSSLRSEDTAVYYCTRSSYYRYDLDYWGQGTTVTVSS VL: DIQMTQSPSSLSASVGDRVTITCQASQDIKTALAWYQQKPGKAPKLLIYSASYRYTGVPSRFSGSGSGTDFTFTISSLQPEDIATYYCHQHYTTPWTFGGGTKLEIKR" endpointvalue=4.79
binder="huTIGIT-19-1 (antibody, human IgG1, kappa, V domains shown, Humanized IgG; also called 19VH4.M9 + 19VL1.M4) VH: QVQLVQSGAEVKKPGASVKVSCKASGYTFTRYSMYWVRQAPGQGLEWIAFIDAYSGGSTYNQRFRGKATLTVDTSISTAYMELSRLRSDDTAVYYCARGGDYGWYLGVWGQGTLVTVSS VL: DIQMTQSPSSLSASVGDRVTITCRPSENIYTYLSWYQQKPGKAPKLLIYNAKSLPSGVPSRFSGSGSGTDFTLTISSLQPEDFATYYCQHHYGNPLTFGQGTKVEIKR" endpointvalue=5.90
binder="huTIGIT-6-1 (antibody, human IgG1, kappa, V domains shown, Humanized IgG; also called 6VH6.M4 + 6VL1.M1) VH: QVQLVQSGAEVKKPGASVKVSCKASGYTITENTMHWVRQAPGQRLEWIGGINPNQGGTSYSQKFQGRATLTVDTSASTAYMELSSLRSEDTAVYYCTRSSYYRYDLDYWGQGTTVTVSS VL: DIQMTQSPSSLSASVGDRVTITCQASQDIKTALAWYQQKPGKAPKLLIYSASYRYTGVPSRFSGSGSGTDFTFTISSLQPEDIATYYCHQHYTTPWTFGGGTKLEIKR" endpointvalue=4.77
binder="huTIGIT-19-3 (antibody, human IgG1, kappa, V domains shown, Humanized IgG; also called 19VH4.M10 + 19VL1.M4) VH: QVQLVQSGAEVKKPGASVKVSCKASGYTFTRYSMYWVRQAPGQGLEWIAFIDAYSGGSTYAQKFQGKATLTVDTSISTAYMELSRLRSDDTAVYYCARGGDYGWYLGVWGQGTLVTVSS VL: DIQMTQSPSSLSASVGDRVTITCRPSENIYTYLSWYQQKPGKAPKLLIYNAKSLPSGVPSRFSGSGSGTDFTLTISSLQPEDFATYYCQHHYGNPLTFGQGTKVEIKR" endpointvalue=5.88
binder="TIGIT-6 chimeric antibody (antibody, human IgG1, kappa, V domains shown, also called 6VH + 6VL) VH: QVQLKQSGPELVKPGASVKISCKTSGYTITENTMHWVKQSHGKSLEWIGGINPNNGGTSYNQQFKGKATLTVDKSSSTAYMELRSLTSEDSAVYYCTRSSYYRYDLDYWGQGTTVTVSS VL: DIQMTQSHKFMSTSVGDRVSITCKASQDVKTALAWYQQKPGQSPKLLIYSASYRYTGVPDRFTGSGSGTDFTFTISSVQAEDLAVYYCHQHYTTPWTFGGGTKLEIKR" endpointvalue=5.08
